tested on: MALME-3M melanoma; assay: NCI-60 one-dose screen, 48 h (100 = growth as untreated, 0 = no growth, -100 = all killed); settings: 10 µM unless noted
Compounds without any hit were thinned out: in the full panel of roughly 83,000, 20% have a hit. The source made the active and inactive calls. How the source made its calls: active means growth percent below 10; inactive means the rest.
QUANTITY KIND: growth

- COMPOUND: "CCN1CCN(CC(=O)Nc2nc3ccc(NCc4ccc(Cl)cc4)cc3s2)CC1"
  QUANTITY KIND: "growth"
  READOUT VALUE: "0.984% (active)"
- COMPOUND: "CC(C)C1=NOC(=O)C1=Cc1cn(-c2ccco2)nc1-c1ccccc1"
  QUANTITY KIND: "growth"
  READOUT VALUE: "104% (inactive)"
- COMPOUND: "O=c1c2c3c(sc2n2cnnc2n1Cc1ccccc1)CCCC3"
  QUANTITY KIND: "growth"
  READOUT VALUE: "95.8% (inactive)"
- COMPOUND: "CCOC(=O)c1c[nH]c2cc(OCC3CC3)c(OCC3CC3)cc2c1=O"
  QUANTITY KIND: "growth"
  READOUT VALUE: "106% (inactive)"
- COMPOUND: "Cn1cc(-c2noc(-c3cn(C)c4ncccc34)n2)c2cc(Cl)ccc21"
  QUANTITY KIND: "growth"
  READOUT VALUE: "90.7% (inactive)"
- COMPOUND: "COc1ccc(C(=O)CSc2nccc(Nc3ccc(C(=O)O)cc3)n2)cc1"
  QUANTITY KIND: "growth"
  READOUT VALUE: "93% (inactive)"
- COMPOUND: "N#C/C(C(=O)c1ccccc1)=C1/C(=O)Nc2ccccc21"
  QUANTITY KIND: "growth"
  READOUT VALUE: "108% (inactive)"
- COMPOUND: "Cc1cccc(C[C@H](NC(=O)Nc2ccc(Cl)cc2F)C(=O)N[C@@H]2C(=O)N3C[C@H](O)C[C@H]3C(=O)N3CCN(C)C[C@H]3C(=O)N[C@@H](C)C(=O)N3C[C@H](C)C[C@H]3C(=O)O[C@H]2C)c1"
  QUANTITY KIND: "growth"
  READOUT VALUE: "42.9% (inactive)"
- COMPOUND: "CC(C)(C)c1cc(C(=O)Nc2cc3ccccc3cc2C(=O)NCCN)cc(C(C)(C)C)c1"
  QUANTITY KIND: "growth"
  READOUT VALUE: "-38.1% (active)"
